Test system: K562 CRISPRi cells
Test: Perturb-seq pooled growth measurement (sgRNA counts, growth phenotype γ, relative activity)
Assay type: cell-based, human
Settings: sequencing read counts; 10 days of growth (day twelve after transduction)
Description: Finally, we sought to use intermediate-activity sgRNAs to explore relationships between expression levels of various genes and the resulting cellular phenotypes. […] In addition to the single-cell transcriptomes, we measured bulk growth phenotypes conferred by sgRNAs in these cells. […]
Category | rule: reported Perturb-seq pooled growth sgRNA counts, d10 within range, see LOW (below 4000), MEDIUM (4000 to below 9000), HIGH (9000 or more)

Answered examples (3):
[[record]]
substance = "SEC61A1_−_127771295.23-P1_01: sgRNA targeting SEC61A1, GGCACTGTCGTGTCTCTCGG, SEQ ID NO: 85 (listed as DNA, chemistry not fully specified)"
qualitative_label = "MEDIUM"

[[record]]
substance = "DUT_+_48624411.23-P1P2_01: sgRNA targeting DUT, GCCAGCGAGGAGACCACCGG, SEQ ID NO: 111 (listed as DNA, chemistry not fully specified)"
qualitative_label = "LOW"

[[record]]
substance = "POLR2H_+_184081251.23-P1P2_07: sgRNA targeting POLR2H, GGGGCCACGAGTGCAGCAGA, SEQ ID NO: 118 (listed as DNA, chemistry not fully specified)"
qualitative_label = "MEDIUM"


Returns: class label. Input: GATA1_−_48645022.23-P1P2_04: sgRNA targeting GATA1, GTGAGCTTACCACATCCCCA, SEQ ID NO: 121 (listed as DNA, chemistry not fully specified)
LOW

Returns: class label. Input: GNB2L1_+_180670873.23-P1P2_08: sgRNA targeting GNB2L1, GTGCAAGGTGGCGGCAGGAG, SEQ ID NO: 56 (listed as DNA, chemistry not fully specified)
HIGH

Returns: class label. Input: RPS14_+_149829238.23-P1P2_04: sgRNA targeting RPS14, GAGGCCCGCGCGCGACAATC, SEQ ID NO: 48 (listed as DNA, chemistry not fully specified)
HIGH

Returns: class label. Input: CDC23_−_137548987.23-P1P2_00: sgRNA targeting CDC23, GACAGCCACCGGGACCATGG, SEQ ID NO: 18 (listed as DNA, chemistry not fully specified)
LOW

Returns: class label. Input: GATA1_−_48645022.23-P1P2_12: sgRNA targeting GATA1, GTGAGCTTGCCACATCCGCA, SEQ ID NO: 124 (listed as DNA, chemistry not fully specified)
HIGH

Returns: class label. Input: DUT_+_48624411.23-P1P2_10: sgRNA targeting DUT, GCGAGCGAGGAGACCAACGG, SEQ ID NO: 114 (listed as DNA, chemistry not fully specified)
MEDIUM

----------
System: K562 CRISPRi cells
Assay: Perturb-seq pooled growth measurement (sgRNA counts, growth phenotype γ, relative activity)
Format: cell-based, human
Conditions: γ relative to perfectly matched sgRNA (_00) of the same gene, day 10
Provide the reported relative_activity_day10 of each item.
Answers are plain numbers.

Use these answered entries as a reference point.
[[record]]
substance = "MTOR_ + _11322547.23-P1P2_05 (guide GGGCAGGGGGCTTGAAGCGG; listed as DNA, chemistry not fully specified)"
quantity_measured = "relative_activity_day10"
numeric_readout = 0.6137

[[record]]
substance = "ATP5E_ −_57607036.23-P1P2_01 (guide GGTGTCCTGGGGCACTCTGT; listed as DNA, chemistry not fully specified)"
quantity_measured = "relative_activity_day10"
numeric_readout = 1.016

[[record]]
substance = "RPS15_ −_1438413.23-P1P2_12 (guide GACCAAAGCGATCTCTTGTG; listed as DNA, chemistry not fully specified)"
quantity_measured = "relative_activity_day10"
numeric_readout = 0.03119

[[record]]
substance = "RPL9_ + _39460483.23-P1P2_01 (guide GGATGATTCTGTGCTCGTGG; listed as DNA, chemistry not fully specified)"
quantity_measured = "relative_activity_day10"
numeric_readout = 0.7441

[[record]]
substance = "GATA1_ −_48645022.23-P1P2_00 (guide GTGAGCTTGCCACATCCCCA; listed as DNA, chemistry not fully specified)"
quantity_measured = "relative_activity_day10"
numeric_readout = 1

[[record]]
substance = "GINS1_ −_25388381.23-P1P2_14 (guide GGACTAGAACGAAAGGAGCG; listed as DNA, chemistry not fully specified)"
quantity_measured = "relative_activity_day10"
numeric_readout = 0.3662


Would you mind giving relative_activity_day10 for every substance in the list below?
1. TUBB_ + _30688126.23-P1_00 (guide GCGGCAGGAAGGTTCTGAGA; listed as DNA, chemistry not fully specified)
2. ATP5E_ −_57607036.23-P1P2_14 (guide GGTGTCCAGGGGCACTGTGT; listed as DNA, chemistry not fully specified)
3. CDC23_ −_137548987.23-P1P2_02 (guide GACAGCTACCGGGACCATGG; listed as DNA, chemistry not fully specified)
4. ALDOA_ + _30077139.23-P1P2_00 (guide GGTCACCAGGACCCCTTCTG; listed as DNA, chemistry not fully specified)

[1, 0.156, 0.8665, 1]

Reference source: patent US20220259593A1
